Task for the reader: assign each of the following molecules its reported EII50.
Assay: Inhibition of Escherichia coli (K12J53) Dihydopteroate synthase.
Numbers only.

Sample answers from the record:
NC(=O)NS(=O)(=O)c1ccc(N)cc1 [SULFACARBAMIDE] : 8.4
Nc1ccc(S(=O)(=O)Nc2ccccn2)cc1 : 4.2
CN(c1ncccn1)S(=O)(=O)c1ccc(N)cc1 : 9.2

--- query ---
Query :: Entry Nc1ccc(S(=O)(=O)Nc2nccs2)cc1 has what EII50?
Result :: 0.9

* * *

Test system: Escherichia coli
Assay: In vitro inhibition of Escherichia coli (K12J53) growth.
property.name: GII50

N#CNS(=O)(=O)c1ccc(N)cc1 : > 50000

For each of the items listed, what is its GII50?
1. CN(C)S(=O)(=O)c1ccc(N)cc1
2. Cn1ccs/c1=N\S(=O)(=O)c1ccc(N)cc1
3. Cn1cccn/c1=N\S(=O)(=O)c1ccc(N)cc1
4. CN(c1nccs1)S(=O)(=O)c1ccc(N)cc1

Result ::
["> 35000", "> 10000", "> 100000", "> 10000"]
